Where do these numbers come from? They come from ChEMBL document CHEMBL1131962.

Target sequence: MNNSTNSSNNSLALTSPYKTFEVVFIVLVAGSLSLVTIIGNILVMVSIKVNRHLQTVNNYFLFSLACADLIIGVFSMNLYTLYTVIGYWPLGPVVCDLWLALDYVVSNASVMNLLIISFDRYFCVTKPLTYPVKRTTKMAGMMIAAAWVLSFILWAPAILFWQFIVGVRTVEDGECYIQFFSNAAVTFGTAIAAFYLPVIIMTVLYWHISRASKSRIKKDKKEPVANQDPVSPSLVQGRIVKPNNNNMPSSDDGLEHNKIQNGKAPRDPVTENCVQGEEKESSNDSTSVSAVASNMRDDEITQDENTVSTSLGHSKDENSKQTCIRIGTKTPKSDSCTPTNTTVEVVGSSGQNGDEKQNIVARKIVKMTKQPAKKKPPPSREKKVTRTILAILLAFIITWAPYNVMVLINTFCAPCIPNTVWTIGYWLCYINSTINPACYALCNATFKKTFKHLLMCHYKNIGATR
MEASURED PROPERTY: pKi
Scale: pKi equals -log10([C]), with [C] in mol/L.

Request: Param item = "Nc1cccc(-c2ccc(CCN3CCN(CC(=O)c4ccccc4)CC3)cc2)n1" ; retrieve measured pKi.
Response: 6.49
